Measured values drawn from the supplement of paper PMC10065799 for this set.

Please respond with reported SH2 binding enrichment for every item in the list.
target: Grb2 SH2 (UniProt P62993); assay: SH2 binding enrichment of the phosphorylated peptide, bacterial display (enrichment ratio); higher = better substrate or ligand; peptides without Tyr show the background
Sequence (P62993 whole entry, looked up): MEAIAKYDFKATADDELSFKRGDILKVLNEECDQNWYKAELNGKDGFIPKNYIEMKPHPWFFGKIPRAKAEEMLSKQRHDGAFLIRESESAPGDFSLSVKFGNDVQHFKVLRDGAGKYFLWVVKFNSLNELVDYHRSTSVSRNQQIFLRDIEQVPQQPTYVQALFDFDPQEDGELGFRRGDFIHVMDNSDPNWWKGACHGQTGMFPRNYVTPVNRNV

[
  {
    "primary-sequence": "QITQVYGFYHE [PPP2CA_Y127_D131H]",
    "value": 1.04
  }
]

Each of the following entries comes with a recorded value; kindly state SH2 binding enrichment for each.
1. CTTIHYNFMCD [TP53_Y234_N239D_YF]
2. PPQFSYGLQTQ [SRA1_Y35]
3. LVQAEYWHDPI [PPT1_Y185]

[1.74, 0.97, 0.824]

Below are some sequences; for each one, tell me its SH2 binding enrichment.
1. QLLIKYPPEEV [ZZZ3_Y670]
2. ARLDEYIAIAK [RCOR3_Y46_K42R]
3. TISPFYRQSLF [CRYAA_Y48_YF]
4. VQNIVYRTASI [CYP39A1_Y102]
5. GMAHNYRNRSQ [AASS_Y188_S191R]
6. AALSAYAAQRP [PTPRN2_Y249]

[0.848, 0.664, 0.85, 0.689, 0.703, 0.813]

* * *

tested on: Fer (mouse); test: phosphorylation enrichment, bacterial display (enrichment ratio); higher = better substrate or ligand; peptides without Tyr show the background;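 note: frequency after pTyr selection over input frequency; kinase dosed for 20-30% of maximal phosphorylation in three min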
Rule: phosphorylation enrichment under 0.5 gives not satisfied, otherwise satisfied.

[
  {
    "primary-sequence": "NKPTVYGVSPN [ABL1_Y226]",
    "class-name": "not satisfied"
  },
  {
    "primary-sequence": "RQRTAYFSLDT [CDH1_Y68]",
    "class-name": "not satisfied"
  },
  {
    "primary-sequence": "PEAALYGRFTF [FYN_Y440_I445F]",
    "class-name": "satisfied"
  }
]

I'd appreciate it if you could say whether MENFIYESMQY [CYP19A1_Y361_R365Q] has phosphorylation enrichment at least equal to 0.5.
satisfied

Now give it for LSDGPYSSPYE [EPOR_Y485_N487S] too.
satisfied

Would you kindly repeat that for EARRVYGDIIY [ALDH5A1_Y175_H180Y] ?
satisfied

What do we get for QGIYGYHHHMQ [UFSP2_Y287_Y290H] ?
satisfied

And then IGRGSYAKVLL [PRKCZ_Y263] , what is it?
not satisfied

Moving on to PVFQVYPLLNC [GATA1_Y78]
satisfied

Please answer likewise for PANTVYSTVEI [SLAMF7_Y304]
satisfied

* * *

system: Fer (mouse); test: phosphorylation enrichment, bacterial display (enrichment ratio); higher = better substrate or ligand; peptides without Tyr show the background;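 note: 11-residue human phosphosite peptides and single-mutation variants displayed on the E. coli surface, counted by deep sequencing, each peptide's frequency after selection divided by its frequency in the unselected input library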;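 note: frequency after pTyr selection over input frequency; kinase dosed for 20-30% of maximal phosphorylation in three min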
Returns Y if the recorded phosphorylation enrichment is greater than or equal to 0.5, and N otherwise.

Worked examples, 5 sequences total:
[
  {
    "primary-sequence": "CEAMEYQESKQ [BTK_Y511_L512Q]",
    "class-name": "Y"
  },
  {
    "primary-sequence": "SVVVPDEPPEV [TP53_Y220_Y220D]",
    "class-name": "Y"
  },
  {
    "primary-sequence": "WQQQSYLDSVI [CTNNB1_Y30_G34V]",
    "class-name": "N"
  },
  {
    "primary-sequence": "HRGFLYLAIEY [TEK_Y899_Y897F]",
    "class-name": "Y"
  },
  {
    "primary-sequence": "MDDDQYALLTA [EFCAB6_Y675_T680A]",
    "class-name": "Y"
  }
]

State whether the measured phosphorylation enrichment reaches 0.5, counting equality as reaching it, for NGSKGYAYVHF [PABPC5_Y147]
Y

Try SETDDYAEIID [PTK2_Y397] next.
Y

Entry RLRKFHLGKFL [KLB_Y906_Y906H_YF] please
N

What do you get for LSRDVYEEDSF [RET_Y900_YF] ?
Y

Same read-out for SVVVPYEPSEV [TP53_Y220_P223S] ?
Y

Likewise for FPKVRYHWLVL [APTX_Y214_A212V_YF] ?
Y

Also need VCHELYNTIRD [PBRM1_Y54] , thanks.
Y

Would you mind doing LVRPPYSYSAL [FOXI1_Y126] as well?
Y

// query: FGIAQYCCRMG [LRRK2_Y2023_YF]
N

Try HSFQCYGRNEA [ENTPD3_Y262] next.
Y

Another: PPQFSYGLQTQ [SRA1_Y35]
N

Thanks! And SDFFAYSPVRE [H6PD_Y449_YF] ?
Y

Another: STEAIYRRFSK [SH3PXD2B_Y42_YF]
N

Now consider NGVSYYINLCQ [IGF2R_Y2025] .
Y

Please give the result for QSKGIYFVQLE [MGAT4B_Y262_YF] too.
Y

And SRGLAYPARPA [LEMD2_Y122] ?
N

`KINKMYSDHAM` ?
N
